Where these numbers come from: PubChem BioAssay (NCI)

Tested on: SK-MEL-2 melanoma
PROCEDURE_TEXT: NCI tumour cell line growth inhibition, 48 h
MEASUREMENT_KIND: GI50

| COMPOUND | TARGET_SYSTEM | MEASUREMENT_KIND | RESULT |
| --- | --- | --- | --- |
| CCN(CC)C(=S)SCN1C(=O)c2ccccc2S1(=O)=O | SK-MEL-2 melanoma | GI50 | > 94400 nM |
| Cc1ccc(NC(=O)CSc2nnc3n(Cc4ccccc4)c(=O)c4c(C)c(C(N)=O)sc4n23)cc1 | SK-MEL-2 melanoma | GI50 | 16000 nM |
| Cc1cc(N2CCOCC2)nc(N(CCCNc2ccnc3cc(Cl)ccc23)Cc2ccco2)n1 | SK-MEL-2 melanoma | GI50 | 2520 nM |
| CN1CCN(c2ccc(NC(=O)c3cncnc3Nc3ccc(OCc4ccccn4)c(Cl)c3)cc2)CC1 | SK-MEL-2 melanoma | GI50 | 4740 nM |
| NS(=O)(=O)c1ccc(N(/C=C/C(=O)C(F)(F)F)Cc2ccc(Cl)cc2)cc1 | SK-MEL-2 melanoma | GI50 | 27200 nM |
| N#C/C(=C\c1ccc(Br)cc1)n1nnc2cc(Cl)c(Cl)cc21 | SK-MEL-2 melanoma | GI50 | 2080 nM |
| C=C(CO)[C@@H]1CC[C@]2(COC3CCCCO3)CC[C@]3(C)[C@H](CC[C@@H]4[C@@]5(C)C=C(C=O)C(=O)C(C)(C)[C@@H]5CC[C@]43C)[C@@H]12 (stereo partly specified) | SK-MEL-2 melanoma | GI50 | 448 nM |
| CC1(C)NCCC[C@]2(C)[C@H]3CC[C@@H]4[C@H]5[C@H](C(=O)/C=C/c6ccccn6)CC[C@]5(CO)CC[C@@]4(C)[C@]3(C)CC[C@@H]12 | SK-MEL-2 melanoma | GI50 | 2490 nM |
| Oc1c(Cl)cc(Cl)cc1C(c1cc(Cl)cc(Cl)c1O)C(Cl)(Cl)Cl | SK-MEL-2 melanoma | GI50 | 2720 nM |
| CN(CC(=O)Nc1nc2ccccc2[nH]1)S(=O)(=O)c1ccc(Cl)cc1 | SK-MEL-2 melanoma | GI50 | 2920 nM |
| C/C(=C\c1cc(C(F)(F)F)n(-c2ccc(N)cc2)n1)[C@@H]1C[C@@H]2O[C@]2(C)CCC[C@H](C)[C@H](O)[C@@H](C)C(=O)C(C)(C)[C@@H](O)CC(=O)O1 | SK-MEL-2 melanoma | GI50 | 29.5 nM |
| OCCNc1nc(Nc2ccc(Cl)c(Cl)c2)nc2ccccc12 | SK-MEL-2 melanoma | GI50 | 16400 nM |
| COc1ccc2c(c1)C(=O)/C(=C/c1ccc([N+](=O)[O-])o1)O2 | SK-MEL-2 melanoma | GI50 | 1830 nM |
| CCCCCCCCCNC(=O)/C=C/c1ccc(O)c(O)c1 | SK-MEL-2 melanoma | GI50 | 17300 nM |
| O=C(N/N=C/c1ccc(O)cc1O)c1cccc(Nc2ccnc(C(F)(F)F)c2)c1 | SK-MEL-2 melanoma | GI50 | 7390 nM |
| CC1(N)CCN(c2cnc(-c3cccc(Cl)c3Cl)c(N)n2)CC1 | SK-MEL-2 melanoma | GI50 | 20100 nM |

###

Tested on: SR leukemia
PROCEDURE_TEXT: NCI tumour cell line growth inhibition, 48 h
This listing pairs molecules with measured log10(TGI).
MEASUREMENT_KIND: log10(TGI) (log10 of the value in µM)

| MOLECULE | log10(TGI) |
| --- | --- |
| CCn1c(-c2nonc2N)nc2c(C#CC(C)(C)O)ncc(OC[C@H]3CCCNC3)c21 | 1.62 |
| O=C(Nc1cccc(Cl)c1)c1cccc(NC2=C(Cl)C(=O)N(Cc3ccccc3)C2=O)c1 | 1.02 |
| CCN(CC)C(=S)SCN1C(=O)c2ccccc2S1(=O)=O | 1.44 |
| COc1cc(-c2csc(NC(=O)Nc3ccc(C(F)(F)F)cc3)n2)cc(OC)c1OC | 0.83 |
| CN(C)c1ccc(C2CC(c3ccc4ccccc4c3O)=NN2c2ccc([N+](=O)[O-])cc2[N+](=O)[O-])cc1 (stereo not given) | 1.71 |
| O=C(Nc1cccc(-c2ccc(Cl)c(C(F)(F)F)c2)c1)C1CCN(Cc2cccc3cccnc23)CC1 | 0.65 |
| C/C(=N\NC(=S)SCc1ccccc1)c1ccccn1 | 0.25 |
| Cc1ccc2c(ccc(/C=C\c3cc(C)c4cccnc4c3O)[n+]2C)c1 | 1.40 |
